# Experimental target: human DGKα (Homo sapiens, UniProt P23743)
# Construct: TVMV protease cleavage site (C); Hexa-His (C)
# Sequence (P23743 with tags, fused parts or gaps): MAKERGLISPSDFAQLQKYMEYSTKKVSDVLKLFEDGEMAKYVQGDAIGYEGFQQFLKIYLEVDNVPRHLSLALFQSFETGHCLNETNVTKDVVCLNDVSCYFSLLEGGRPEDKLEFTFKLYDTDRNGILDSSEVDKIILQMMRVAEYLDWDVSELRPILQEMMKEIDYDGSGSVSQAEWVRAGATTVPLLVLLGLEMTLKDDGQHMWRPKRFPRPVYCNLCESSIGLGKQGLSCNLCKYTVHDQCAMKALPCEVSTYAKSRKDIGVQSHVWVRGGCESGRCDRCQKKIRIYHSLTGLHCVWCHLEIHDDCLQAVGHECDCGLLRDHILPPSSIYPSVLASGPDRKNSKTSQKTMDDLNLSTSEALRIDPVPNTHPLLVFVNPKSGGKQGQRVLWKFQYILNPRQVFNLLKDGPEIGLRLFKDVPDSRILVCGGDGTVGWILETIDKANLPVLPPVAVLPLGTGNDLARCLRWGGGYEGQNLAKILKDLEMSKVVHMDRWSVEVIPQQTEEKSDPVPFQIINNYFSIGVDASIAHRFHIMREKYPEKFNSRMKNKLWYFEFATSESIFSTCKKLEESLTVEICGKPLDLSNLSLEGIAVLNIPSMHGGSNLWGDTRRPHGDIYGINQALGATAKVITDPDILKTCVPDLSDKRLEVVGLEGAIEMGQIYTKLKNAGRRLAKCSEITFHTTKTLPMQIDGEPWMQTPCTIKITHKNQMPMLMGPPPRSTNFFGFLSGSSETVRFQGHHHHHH
# Test details: In vitro DGK inhibition assay, DGKα liposome (LIPGLO) assay
# Assay conditions: read-out: Enzyme Inhibition DGKalpha IC50
Readout type: IC50 (µM)

{"columns": ["Structure smiles string", "IC50 (µM)"],
 "data": [
  ["Cn1c(=O)cc(N(Cc2ccccc2)CC2CC2)c2nc(C#N)ccc21", 4.5]
]}

a = Cn1c(=O)cc(N(CC2CC2)c2ccc(-c3ccccc3O)cc2)c2nc(C#N)ccc21
b = CN(c1ccc(Cl)cc1)c1cc(=O)n(C)c2ccc(C#N)nc12
Ask: Please indicate which entry, a or b , has the lower recorded IC50 value. Answer by stating the label of the chosen item.
Result: b
(b: 0.45 µM, a: 6.3 µM)
